system: MDA-MB-231 breast; experiment: NCI-60 one-dose screen, 48 h (100 = growth as untreated, 0 = no growth, -100 = all killed); details: 10 µM unless noted
This is part of a sample that, as a whole, favours compounds with a hit. Of some 83,000 tested, about 20% had one in any assay.
The entries below are paired with their reported growth.
Numeric answer only, unit % assumed.

Some entries whose results are on file:
O=Nc1c2cccnc2n2nnc3ccc(Cl)cc3c12 ... 13.9
CN(C)c1ccc(-c2nc3ncc(Br)cc3o2)cc1 ... 90.2
COc1ccc2c(c1)c(CC(=O)[Se]C)c(C)n2C(=O)c1ccc(Cl)cc1 ... 44.4
COC(=O)CC1=C(c2ccc([N+](=O)[O-])cc2)CCC1=O ... 102
COc1cc(/C=N/OC(=O)Nc2ccccc2)cc(OC)c1OC ... 92.6

I looked up C1CCC(C(CC2CCCCN2)C2CCCCC2)CC1 (stereo not given) and its growth for MDA-MB-231 breast was 1.11

I looked up CC(=O)Nc1ccc(C(=O)COc2cccc(/C=C3\CCc4ccccc4C3=O)c2)cc1 and its growth for MDA-MB-231 breast was 90

* * *

system: SK-MEL-2 melanoma; assay: NCI-60 one-dose screen, 48 h (100 = growth as untreated, 0 = no growth, -100 = all killed); settings: 10 µM unless noted
This is part of a sample that, as a whole, favours compounds with a hit. Of some 83,000 tested, about 20% had one in any assay.
RECORDED_ENDPOINT: growth (%)
Numeric answer only, unit % assumed.

Cn1ccnc1C(=O)/C=C/c1ccc(C(=O)Nc2nc3ccccc3[nH]2)cc1 ... 85.4
O=C(Nc1nc(-c2ccc(Cl)cc2)cs1)c1cc(-c2ccc(Br)cc2)nc2ccc(Cl)cc12 ... 22.8

# molecule CCCCCCCC[Si](OCC)(OCC)OCC ; its growth = 102

# molecule COc1ccc(Cl)cc1Nc1nc(C(F)(F)F)ccc1C(=O)N/N=C/c1c(Cl)cccc1Cl ; its growth = 28.3

# molecule O[N+]1=CC=CCC1=S.On1ccccc1=S.[Zn] ; its growth = -67.8

* * *

Test system: UO-31 renal
Assay: NCI-60 one-dose screen, 48 h (100 = growth as untreated, 0 = no growth, -100 = all killed)
Conditions: 10 µM unless noted
Protocol: Growth inhibition of the UO-31 human tumor cell line is measured as a screen for anti-cancer activity. Cells are grown in 96 well plates and exposed to the test compound for 48 hours. Compounds are tested at a single concentration, which is 10^-5 M for most compounds. The reported endpoint is percent growth (GI% or GIPRCNT), where numbers from 0 - 100% represent growth inhibition, and numbers from -100% - 0 represent cell death. For example, a value of 40 represents 60% growth inhibition. […]
This is part of a sample that, as a whole, favours compounds with a hit. Of some 83,000 tested, about 20% had one in any assay.
# note: exactly 50% is not below, so it is condition not met; use condition met for growth strictly under it

Study these solved cases before continuing.
COc1ccc2ncccc2c1Cc1c(OC)ccc2ncccc12 ... condition not met
Clc1ccc2c(c1)C(Br)c1cc(Cl)cc(Cl)c1-2 (stereo not given) ... condition not met
CCN(Cc1cccc(S(=O)(=O)[O-])c1)c1ccc(C(=C2C=CC(=[N+](CC)Cc3cccc(S(=O)(=O)O)c3)C=C2)c2ccccc2S(=O)(=O)O)cc1 ... condition not met

We next turn to a different compound, shown below.
[Q] Determine if C[C@H](C(=O)N[C@@H](Cc1ccc(-c2ccccc2)cc1)C(=O)NC1CC(C)(C)NC(C)(C)C1)c1ccc(-c2ccccc2)c(F)c1 shows growth strictly lower than 50%.
[A] condition met

* * *

test system: BT-549 breast; test: NCI-60 one-dose screen, 48 h (100 = growth as untreated, 0 = no growth, -100 = all killed); conditions: 10 µM unless noted
Compounds without any hit were thinned out: in the full panel of roughly 83,000, 20% have a hit.
The entries below are paired with their reported growth.
Numeric answer only, unit % assumed.

Some entries whose results are on file:
c1cc[n+](Cc2ccnc3ccccc23)cc1 ... 112
CCc1nn2c(-c3ccc(Cl)cc3C)c(-c3cc(OC)c(OC)c(OC)c3)nc2s1 ... 101
COc1ccc(C(=O)COc2ccc(/C=C3\Oc4ccc5ccccc5c4C3=O)cc2)cc1 ... 45.1
COc1ccc2c(c1)[n+](=O)c(/C=C/C(=O)c1cc(OC)c(OC)c(OC)c1)c(C)n2[O-] ... 73.3
COc1cc(NC(=O)NCc2ccco2)ccc1-c1ccc(NC(=O)NCc2ccco2)cc1OC ... 81.7

# molecule CC(=O)Nc1cc2c3c(cccc3c1)-c1ccccc1-2 ; its growth = 64.7

# molecule O=c1ccn(C2CC=C(CO)O2)c(=O)[nH]1 (stereo not drawn) ; its growth = 106

# molecule CC(=O)OCC(=O)[C@@]1(O)CC[C@H]2[C@@H]3CCC4=CC(=O)CC[C@]4(C)[C@@]3(F)[C@@H](O)C[C@@]21C ; its growth = 103

# molecule Cc1n(Cc2ccc3ccccc3c2)c2ccccc2[n+]1Cc1ccc2ccccc2c1 ; its growth = -79.7

# molecule N=C1c2nc3n(c2C(=O)c2nc4n(c21)CCCCC4)CCCCC3 ; its growth = 110

# molecule Clc1ccc2nc(CI)c(CI)nc2c1 ; its growth = 73.1

# molecule O=C(NC1CCS(=O)(=O)C1)c1ccc(C(=O)c2ccccc2)cc1 (stereo not drawn) ; its growth = 121

# molecule COc1ccc2cc(C3=CC(=O)CCC3)ccc2c1 ; its growth = 97.1

# molecule COc1cccc(/C=N/Nc2nc3ccccc3s2)c1OC ; its growth = 78.5

# molecule COc1cc(/C=C/C(=O)c2c(C)n([O-])c3ccc(Cl)cc3[n+]2=O)cc(OC)c1OC ; its growth = 53.8

# molecule Cc1ccc(C(NC(=O)c2ccccc2)c2ccc3cccnc3c2O)cc1 (stereo not drawn) ; its growth = 25.5

# molecule CSc1nc2nc3c(nc2c(=O)n1C)C(=O)c1ccccc1C3=O ; its growth = -94.8

# molecule COC(=O)C1CCN(S(=O)(=O)c2ccc(-c3ccccc3)cc2)CC1 ; its growth = 129

# molecule Cc1cc(Cl)ccc1Nc1nc(C(F)(F)F)ccc1C(=O)N/N=C/c1ccc(Cl)cc1 ; its growth = -7.4

# molecule Nc1nc2c(nnn2Cc2ccc(Cl)c(Cl)c2)c(=O)[nH]1 ; its growth = 99.4

# molecule COc1cc(/C=C2\CN(C)CC3=C2Nc2nc(SC)[nH]c(=O)c2C3c2cc(OC)c(OC)c(OC)c2)cc(OC)c1OC (stereo not drawn) ; its growth = 54.9

# molecule CC(C)CC1NC(=O)C(CCCN)NC(=O)C(C(C)C)NC(=O)C2CCCN2C(=O)C(Cc2ccccc2)NC(=O)C(CC(C)C)NC(=O)C(CCCN)NC(=O)C(C(C)C)NC(=O)C2CCCN2C(=O)C(Cc2ccccc2)NC1=O (stereo not drawn) ; its growth = -77.7

# molecule O=C(CN1CCN(c2ccc(Cl)cc2)CC1)N1CCN(c2nnc(-c3ccccc3)c(-c3ccccc3)n2)CC1 ; its growth = 44.9

# molecule C=C1CCC2C3(C)COC(c4ccccc4)OC3CCC2(C)C1C/C=C1/C(=O)OCC1OC(C)=O (stereo not drawn) ; its growth = 103

# molecule CC(=O)c1ccccc1NC(=O)C(C)(c1ccccc1)c1ccccc1 ; its growth = 75.7

* * *

tested on: BT-549 breast; test: NCI-60 one-dose screen, 48 h; settings: 10 µM unless noted
This is part of a sample that, as a whole, favours compounds with a hit. Of some 83,000 tested, about 20% had one in any assay. Active and inactive are the calls of the source. The calls were made as follows: active = growth percent below 10; inactive = the rest.
Hi! Could you answer with just one of these? 1 for active, -1 for inactive

CCOC(=O)c1cnc2c(C)cc(C)cc2c1NCCCN(C)C ... -1
COc1ccc2c(=O)c(OC)c(-c3cc(OC)c(OC)c(OC)c3)oc2c1 ... -1
c1ccc2c(-c3nc4ccccc4[nH]3)cccc2c1 ... -1
Nc1ccc2c(c1Br)Cc1ccccc1-2 ... -1
C/C(=C\CCc1ccsc1)CC/C=C(\C)CCCN1CCSCC1 ... -1
C=C1CC[C@@H]2[C@](C)(COC(C)=O)[C@H](OC(C)=O)CC[C@@]2(C)[C@@H]1CC(NCc1ccccc1)C1=CCOC1=O (stereo partly specified) ... -1

[Q] Called result for COc1ccc2c(c1)c(CC(=O)[Se]C)c(C)n2C(=O)c1ccc(Cl)cc1
[A] 1

[Q] Called result for O=C1c2cc3c(cc2-c2c1c1ccc(Cl)cc1c(=O)n2CCCNCCO)OCO3
[A] 1

[Q] Called result for O=C1Nc2ccc(C(=O)O)c(O)c2C1=O
[A] -1

[Q] Called result for COc1ccc2nc(NC(=O)CN3CCn4c(nnc4C(F)(F)F)C3)sc2c1
[A] -1

[Q] Called result for O=C(Nc1ccc(Cl)cc1)Nc1nc2ccc(OC(F)(F)F)cc2o1
[A] -1

[Q] Called result for N#Cc1c(-c2ccccc2)cc(-c2ccccc2)n(CCCC(=O)O)c1=O
[A] -1

[Q] Called result for COP(=O)(OC)C(c1ccc(O)cc1)(c1ccc(O)cc1)c1ccc(O)cc1
[A] -1
